B1: POU domain, class 3, transcription factor 4, residues 280 to 335; numbered along this chain, P49335 (parent)
chain: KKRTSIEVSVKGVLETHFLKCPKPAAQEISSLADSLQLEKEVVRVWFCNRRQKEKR

variants of: B1; assay: abundance fitness (aPCA) (normalised: wild type 0, dead -1); higher = more abundant; growth selection in yeast, the domain comes from the species named; settings: Homo sapiens
Experimental endpoint: abundance fitness

V43L -0.437
N49A -0.373
K53D -0.232

Give measured abundance fitness for every item shown.
1. Q52E
2. F18M

Key:
1. 0.084
2. -0.893
